Reference source: ChEMBL document CHEMBL1140857

# TEST DESCRIPTION: Displacement of [3H][…] from opioid sigma2 receptor in rat liver homogenate in presence of (+)-pentazocine
# Type: tissue-based
EXPERIMENTAL READOUT: log10 of Ki (log10 of the value in µM)

- LINE NOTATION: "C=CCN1C[C@@H]2[C@@H](OC)CC[C@H]1CN2Cc1ccc(OC)cc1OC"
  log10 of Ki: 0.88
- LINE NOTATION: "C=CCN1C[C@H]2[C@@H](O)CC[C@@H]1CN2Cc1ccc(OC)cc1"
  log10 of Ki: 0.08
- LINE NOTATION: "C=CCN1C[C@@H]2C(=O)CC[C@H]1CN2Cc1ccc(OC)cc1"
  log10 of Ki: 0.96
- LINE NOTATION: "Cc1ccccc1NC(=N)Nc1ccccc1C"
  log10 of Ki: -1.38
- LINE NOTATION: "C=CCN1C[C@@H]2[C@H](O)CC[C@H]1CN2Cc1ccc(OC)cc1"
  log10 of Ki: 0.68
- LINE NOTATION: "C=CCN1C[C@H]2[C@@H](OC)CC[C@@H]1CN2Cc1ccc(OC)cc1OC"
  log10 of Ki: 1.13
- LINE NOTATION: "C=CCN1C[C@H]2CCC[C@@H]1CN2Cc1ccc(OC)cc1OC"
  log10 of Ki: 0.27
- LINE NOTATION: "C=CCN1C[C@H]2[C@@H](OC)CC[C@@H]1CN2Cc1ccc(OC)cc1"
  log10 of Ki: 0.19
- LINE NOTATION: "C=CCN1C[C@H]2[C@H](OC)CC[C@@H]1CN2Cc1ccc(OC)cc1"
  log10 of Ki: 1.35

====

# Tested on: DAN-G
# TEST DESCRIPTION: Cytotoxicity against human DAN-G cells after 96 hrs at 20 uM by crystal violet staining relative to control
# Type: functional
EXPERIMENTAL READOUT: Activity (%)

- LINE NOTATION: "C=CCN1C[C@@H]2N(Cc3ccc(OC)cc3)C[C@H]1CCC2(OC)OC"
  TEST SYSTEM: "DAN-G"
  EXPERIMENTAL READOUT: "Activity"
  UNITS: "%"
  REPORTED VALUE: 109
- LINE NOTATION: "C=CCN1C[C@@H]2[C@@H](O)CC[C@H]1CN2Cc1ccc(OC)cc1OC"
  TEST SYSTEM: "DAN-G"
  EXPERIMENTAL READOUT: "Activity"
  UNITS: "%"
  REPORTED VALUE: 87
- LINE NOTATION: "C=CCN1C[C@@H]2CCC[C@H]1CN2Cc1ccc(OC)cc1OC"
  TEST SYSTEM: "DAN-G"
  EXPERIMENTAL READOUT: "Activity"
  UNITS: "%"
  REPORTED VALUE: 83
- LINE NOTATION: "C=CCN1C[C@H]2[C@@H](O)CC[C@@H]1CN2Cc1ccc(OC)cc1OC"
  TEST SYSTEM: "DAN-G"
  EXPERIMENTAL READOUT: "Activity"
  UNITS: "%"
  REPORTED VALUE: 94
- LINE NOTATION: "C=CCN1C[C@@H]2[C@H](OC)CC[C@H]1CN2Cc1ccc(OC)cc1"
  TEST SYSTEM: "DAN-G"
  EXPERIMENTAL READOUT: "Activity"
  UNITS: "%"
  REPORTED VALUE: 92

====

# TEST SYSTEM: Sigma non-opioid intracellular receptor 1 (Cavia porcellus)
# Sequence (Q60492 whole entry): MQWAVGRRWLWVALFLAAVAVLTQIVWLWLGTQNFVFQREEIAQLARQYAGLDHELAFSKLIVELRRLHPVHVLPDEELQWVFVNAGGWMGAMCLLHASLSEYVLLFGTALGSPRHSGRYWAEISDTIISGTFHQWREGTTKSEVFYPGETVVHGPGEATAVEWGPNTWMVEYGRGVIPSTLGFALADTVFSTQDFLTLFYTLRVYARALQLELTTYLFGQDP
# TEST DESCRIPTION: Displacement of [3H](+)-pentazocine from opioid sigma1 receptor in guinea pig brain homogenate
Recorded log10 of Ki values for a group of molecules are listed next.
EXPERIMENTAL READOUT: log10 of Ki (log10 of the value in nM)

- LINE NOTATION: "C=CCN1C[C@@H]2[C@H](O)CC[C@H]1CN2Cc1ccc(OC)cc1"
  log10 of Ki: 3.35
- LINE NOTATION: "C=CCN1C[C@H]2C(=O)CC[C@@H]1CN2Cc1ccc(OC)cc1"
  log10 of Ki: 2.74
- LINE NOTATION: "C=CCN1C[C@@H]2C(=O)CC[C@H]1CN2Cc1ccc(OC)cc1"
  log10 of Ki: 3.20
- LINE NOTATION: "C=CCN1C[C@H]2[C@@H](O)CC[C@@H]1CN2Cc1ccc(OC)cc1OC"
  log10 of Ki: 3.99
- LINE NOTATION: "C=CCN1C[C@H]2[C@H](OC)CC[C@@H]1CN2Cc1ccc(OC)cc1"
  log10 of Ki: 3.92
- LINE NOTATION: "C=CCN1C[C@H]2CCC[C@@H]1CN2Cc1ccc(OC)cc1"
  log10 of Ki: 1.43
- LINE NOTATION: "C=CCN1C[C@@H]2CCC[C@H]1CN2Cc1ccc(OC)cc1OC"
  log10 of Ki: 2.43
- LINE NOTATION: "C=CCN1C[C@H]2[C@H](O)CC[C@@H]1CN2Cc1ccc(OC)cc1"
  log10 of Ki: 4.24
- LINE NOTATION: "C=CCN1C[C@@H]2[C@@H](O)CC[C@H]1CN2Cc1ccc(OC)cc1"
  log10 of Ki: 4.36

====

# Test system: DAN-G
# TEST DESCRIPTION: Cytotoxicity against human DAN-G cells after 96 hrs at 20 uM by crystal violet staining relative to control
# Format: functional

- LINE NOTATION: "C=CCN1C[C@H]2C(=O)CC[C@@H]1CN2Cc1ccc(OC)cc1"
  Activity [%]: 69
- LINE NOTATION: "C=CCN1C[C@@H]2C(=O)CC[C@H]1CN2Cc1ccc(OC)cc1"
  Activity [%]: 75
- LINE NOTATION: "C=CCN1C[C@H]2[C@H](OC)CC[C@@H]1CN2Cc1ccc(OC)cc1"
  Activity [%]: 95
- LINE NOTATION: "C=CCN1C[C@H]2[C@H](OC)CC[C@@H]1CN2Cc1ccc(OC)cc1OC"
  Activity [%]: 85
- LINE NOTATION: "C=CCN1C[C@H]2CCC[C@@H]1CN2Cc1ccc(OC)cc1"
  Activity [%]: 87
- LINE NOTATION: "C=CCN1C[C@H]2[C@@H](OC)CC[C@@H]1CN2Cc1ccc(OC)cc1OC"
  Activity [%]: 84
- LINE NOTATION: "C=CCN1C[C@H]2[C@@H](O)CC[C@@H]1CN2Cc1ccc(OC)cc1"
  Activity [%]: 100
- LINE NOTATION: "C=CCN1C[C@H]2[C@H](O)CC[C@@H]1CN2Cc1ccc(OC)cc1"
  Activity [%]: 93
- LINE NOTATION: "C=CCN1C[C@H]2[C@@H](OC)CC[C@@H]1CN2Cc1ccc(OC)cc1"
  Activity [%]: 93
- LINE NOTATION: "C=CCN1C[C@H]2[C@H](O)CC[C@@H]1CN2Cc1ccc(OC)cc1OC"
  Activity [%]: 91

====

Consider the following compounds and their measured Activity readings.
# Test system: DAN-G
# TEST DESCRIPTION: Cytotoxicity against human DAN-G cells after 96 hrs at 20 uM by crystal violet staining relative to control
# Format: functional

- LINE NOTATION: "C=CCN1C[C@@H]2[C@@H](OC)CC[C@H]1CN2Cc1ccc(OC)cc1OC"
  Activity, %: 101
- LINE NOTATION: "C=CCN1C[C@@H]2[C@@H](OC)CC[C@H]1CN2Cc1ccc(OC)cc1"
  Activity, %: 95
- LINE NOTATION: "C=CCN1C[C@H]2CCC[C@@H]1CN2Cc1ccc(OC)cc1OC"
  Activity, %: 82
- LINE NOTATION: "C=CCN1C[C@@H]2[C@@H](O)CC[C@H]1CN2Cc1ccc(OC)cc1"
  Activity, %: 102
- LINE NOTATION: "C=CCN1C[C@@H]2CCC[C@H]1CN2Cc1ccc(OC)cc1"
  Activity, %: 92
- LINE NOTATION: "C=CCN1C[C@@H]2[C@H](O)CC[C@H]1CN2Cc1ccc(OC)cc1OC"
  Activity, %: 92
- LINE NOTATION: "C=CCN1C[C@@H]2[C@H](OC)CC[C@H]1CN2Cc1ccc(OC)cc1OC"
  Activity, %: 82
- LINE NOTATION: "C=CCN1C[C@H]2N(Cc3ccc(OC)cc3)C[C@@H]1CCC2(OC)OC"
  Activity, %: 102
- LINE NOTATION: "C=CCN1C[C@@H]2[C@H](O)CC[C@H]1CN2Cc1ccc(OC)cc1"
  Activity, %: 101

====

# TEST SYSTEM: Sigma non-opioid intracellular receptor 1 (Cavia porcellus)
# TEST DESCRIPTION: Displacement of [3H](+)-pentazocine from opioid sigma1 receptor in guinea pig brain homogenate
pKi: −log10 of the molar value.
EXPERIMENTAL READOUT: pKi

- LINE NOTATION: "C=CCN1C[C@H]2N(Cc3ccc(OC)cc3)C[C@@H]1CCC2(OC)OC"
  REPORTED VALUE: 5.90
- LINE NOTATION: "C=CCN1C[C@@H]2[C@H](OC)CC[C@H]1CN2Cc1ccc(OC)cc1"
  REPORTED VALUE: 5.39
- LINE NOTATION: "C=CCN1C[C@H]2[C@H](OC)CC[C@@H]1CN2Cc1ccc(OC)cc1OC"
  REPORTED VALUE: 4.97
- LINE NOTATION: "C=CCN1C[C@H]2[C@@H](OC)CC[C@@H]1CN2Cc1ccc(OC)cc1"
  REPORTED VALUE: 4.79
- LINE NOTATION: "C=CCN1C[C@@H]2[C@H](O)CC[C@H]1CN2Cc1ccc(OC)cc1OC"
  REPORTED VALUE: 5.04
